property label: glass transition temperature (°C)
Lab book: enter the figure in °C, no units written.

// below: answered compounds
{"columns": ["compound", "glass transition temperature [°C]"],
 "data": [
  ["*Oc1ccc2c(c1)C(=O)N(c1cccc(C(=O)c3cccc(N4C(=O)c5ccc(*)cc5C4=O)c3)c1)C2=O (repeat unit)", 239.00],
  ["*C(=O)c1ccc2c(c1)C(=O)N(c1ccc(C)c(N3C(=O)c4ccc(*)cc4C3=O)c1C)C2=O (repeat unit)", 384.00]
]}

Kindly review the next compound as well.
Task: Fill in: glass transition temperature of *Sc1cccc2c1C(=O)N(c1ccc(Oc3ccc(Oc4ccc(N5C(=O)c6cccc(*)c6C5=O)cc4)cc3)cc1)C2=O (repeat unit) is ___
Result: 250.00

====

property label: glass transition temperature (°C)
# number only, unit °C dropped from output

Recorded glass transition temperature, per entry:
{"columns": ["molecule", "result unit", "assay value"],
 "data": [
  ["*Oc1ccc(S(=O)(=O)c2ccc(Oc3ccc(C4(c5ccc(*)c(C)c5)CCCCC4)cc3C)cc2)cc1 (repeat unit)", "°C", 197.00],
  ["*Oc1ccc(P(=O)(c2ccccc2)c2ccc(Oc3ccc(C(c4ccc(*)cc4)(C(F)(F)F)C(F)(F)F)cc3)cc2)cc1 (repeat unit)", "°C", 210.50],
  ["*c1ccc(C(=O)Oc2c(C)cc(C(c3cccnc3)c3cc(C)c(OC(=O)c4ccc(N5C(=O)CC(Nc6ccc(NC7CC(=O)N(*)C7=O)cc6)C5=O)cc4)c(C)c3)cc2C)cc1 (repeat unit)", "°C", 212.00]
]}

Task: Consider the molecule *Oc1c(C)cc(C(C)(C)c2cc(C)c(OC(=O)CCCCC(*)=O)c(C)c2)cc1C (repeat unit) and give its measured glass transition temperature.
Result: 93.00

Task: Requested field: glass transition temperature. Item: *CC(*)(CC(=O)OCCOCCOCCOCCOCCOCCOCCOC)C(=O)OCCOCCOCCOCCOCCOCCOCCOC (repeat unit)
Result: -40.50

====

Entries and their glass transition temperature
# number only, unit °C dropped from output

{"columns": ["molecule", "result unit", "assay value"],
 "data": [
  ["*Oc1ccc(Oc2ccc(C(=O)c3ccc(*)cc3)cc2)cc1-c1cc(C(F)(F)F)cc(C(F)(F)F)c1 (repeat unit)", "°C", 146.00],
  ["*c1ccc(Oc2ccc(N3C(=O)c4ccc(-c5ccc6c(c5)C(=O)N(*)C6=O)cc4C3=O)cc2Br)c(Br)c1 (repeat unit)", "°C", 275.00],
  ["*c1ccc(-c2ccc(C3(*)CCCCC3)cc2)cc1 (repeat unit)", "°C", 287.00]
]}

Now let's try a different one.
Task: Report glass transition temperature for *c1cc(C(=O)NCCCCCCCCCCCC)cc(N2C(=O)c3ccc(-c4ccc5c(c4)C(=O)N(*)C5=O)cc3C2=O)c1 (repeat unit) please.
Result: 243.10

====

property label: glass transition temperature
The number alone won't do; follow it with the unit.

// worked examples, glass transition temperature included
{"columns": ["compound", "glass transition temperature"],
 "data": [
  ["*CCCCCCNC(=O)c1cc(C(=O)N*)cc(C(C)(C)C)c1 (repeat unit)", "163.00 °C"],
  ["*c1ccc(-c2nnc(*)o2)c(OCCCCCCCCCC)c1 (repeat unit)", "165.00 °C"],
  ["*Cc1ccc(COC(=O)Cc2ccc(C(=O)O*)cc2)cc1 (repeat unit)", "47.00 °C"]
]}

Task: Which glass transition temperature is reported for this compound? *c1ccc(Oc2ccc(C(=O)c3cccc(C(=O)c4ccc(Oc5ccc(-c6c7c(c(*)c8ccccc68)C(=O)N(C)C7=O)cc5)cc4)c3)cc2)cc1 (repeat unit)
Result: 251.00 °C

====

property label: glass transition temperature (°C)
The reply should contain only the number, in °C.

Use these answered entries as a reference point.
{"columns": ["compound", "glass transition temperature / °C"],
 "data": [
  ["*C(=O)Nc1ccc(Oc2ccc(C(C)(C)c3ccc(Oc4ccc(NC(=O)c5ccc6c(c5)C(=O)N(c5ccc(Oc7cccc8c(Oc9ccc(N%10C(=O)c%11ccc(*)cc%11C%10=O)cc9)cccc78)cc5)C6=O)cc4)cc3)cc2)cc1 (repeat unit)", 235.00],
  ["*CCCCCCOC(=O)c1ccc(C(=O)O*)cc1 (repeat unit)", 13.00]
]}

Proceed to the following item.
Task: Given the compound *c1ccc(OC(=O)Nc2ccc(-c3ccc(NC(=O)Oc4ccc(-c5nc(-c6ccc(-c7nc(-c8ccc([N+](=O)[O-])cc8)c(-c8ccc([N+](=O)[O-])cc8)[nH]7)cc6)[nH]c5*)cc4)cc3OC)c(OC)c2)cc1 (repeat unit) , what is its reported glass transition temperature?
Result: 223.00

====

Binary label based on glass transition temperature with cut-off 100 °C: below gives true, not below gives false.

{"columns": ["compound", "assigned category"],
 "data": [
  ["*CC(C)(C)C1C(=O)N(c2ccccc2C)C(=O)C1* (repeat unit)", "false"],
  ["*CCCCCCCCCCCCOc1ccc(OCc2ccc(COc3ccc(O*)cc3)cc2)cc1 (repeat unit)", "true"],
  ["*c1cccc(N2C(=O)c3cccc(Oc4ccc(-c5ccc(Oc6cccc7c6C(=O)N(*)C7=O)cc5)cc4)c3C2=O)c1 (repeat unit)", "false"],
  ["*CCCCC(c1ccc(O)cc1)C(*)c1ccc(O)cc1C (repeat unit)", "true"],
  ["*CC(*)(F)C(=O)OCCC(F)(F)C(F)(F)C(F)(F)C(F)(F)C(F)(F)C(F)(F)C(F)(F)C(F)(F)C(F)(F)C(F)(F)F (repeat unit)", "true"],
  ["*/C=C/c1cccc(OC(=O)CCCCCCCCC(=O)Oc2ccc(-c3nnc(*)s3)cc2)c1 (repeat unit)", "true"],
  ["*/C(C)=C(/*)[Si](C)(C)C (repeat unit)", "true"],
  ["*c1ccc(Oc2ccc(N3C(=O)c4ccc(Oc5ccc(S(=O)(=O)c6ccc(Oc7ccc8c(c7)C(=O)N(*)C8=O)cc6)cc5)cc4C3=O)cc2)cc1 (repeat unit)", "false"]
]}

Task: Please determine if *CC(*)C(=O)Oc1ccccc1C(C)(C)C (repeat unit) is below 100 °C in terms of glass transition temperature.
Result: true

Task: Quick check: does *c1ccc(Oc2ccc(Sc3ccc(Oc4ccc(N5C(=O)c6ccc(Oc7ccc(Oc8ccc9c(c8)C(=O)N(*)C9=O)cc7)cc6C5=O)cc4)cc3)cc2)cc1 (repeat unit) have glass transition temperature under 100 °C?
Result: false

Task: API: query returns whether the compound falls strictly under 100 °C in glass transition temperature. Query: *CCOC(=O)Nc1ccc(C)c(NC(=O)OCCOc2ccc(C3(c4ccc(O*)cc4)c4ccccc4-c4ccccc43)cc2)c1 (repeat unit)
Result: false

Task: Is glass transition temperature strictly under 100 °C for the entry *Nc1ccc(C(C)(C)c2cccc(C(C)(C)c3ccc(Nc4ccc(C(=O)c5ccc(C(=O)c6ccc(*)cc6)cc5)cc4)cc3)c2)cc1 (repeat unit) ?
Result: false

Task: A record lists *c1ccc(-c2cc(CCCCCCCC)c(-c3ccc(-c4ccc(-c5sc(-c6ccc([Si](C)(C)[Si](C)(C)[Si](C)(C)[Si](C)(C)[Si](C)(C)[Si](C)(C)[Si](C)(C)[Si](*)(C)C)s6)cc5CCCCCCCC)s4)s3)s2)s1 (repeat unit) . Is its glass transition temperature below 100 °C?
Result: true

Task: Consider *O[Si](*)(C)CCCOc1ccc(C(=O)Oc2ccc(OCCCCCC)cc2)cc1 (repeat unit) . Does its glass transition temperature lie strictly below 100 °C?
Result: true

====

compounds and their reported glass transition temperature
The figure you give is taken to be in °C; do not add the unit.

{"columns": ["compound", "glass transition temperature, °C"],
 "data": [
  ["*CC(*)(CC(=O)OCC)C(=O)OCC (repeat unit)", 65.50],
  ["*CC(O)COc1c(C)cc(C(C)(C)c2cc(C)c(O*)c(C)c2)cc1C (repeat unit)", 130.00],
  ["*Oc1cccc(Oc2ccc(NC(=O)c3cc(NC(=O)c4ccc(OC(C)=O)cc4)cc(C(=O)Nc4ccc(*)cc4)c3)cc2)c1 (repeat unit)", 230.00],
  ["*CC1CCCC(COC(=O)c2ccc(C(=O)O*)cc2)C1 (repeat unit)", 75.00]
]}

Task: Need glass transition temperature of *CC(O)C(O)CN(*)c1ccc(N(C)C)cc1 (repeat unit) , thanks.
Result: 72.00

====

property label: glass transition temperature (°C)
Give the value, in units of °C, as a plain number.

{"columns": ["molecule", "assay value"],
 "data": [
  ["*CCCN1C(=O)c2ccc(C(c3ccc4c(c3)C(=O)N(*)C4=O)(C(F)(F)F)C(F)(F)F)cc2C1=O (repeat unit)", 190.00],
  ["*Oc1ccc(S(=O)(=O)c2ccc(Oc3ccc(NC(=O)c4cc(C(=O)Nc5ccc(*)cc5)cc(C(C)(C)C)c4)cc3)cc2)cc1 (repeat unit)", 232.50],
  ["*O[Si](*)(C)CCCOc1ccc(C(=O)Oc2ccc(-c3ccc(OC(=O)c4cc(OCC)cc(OCC)c4)cc3)cc2)cc1 (repeat unit)", 62.80],
  ["*c1ccc(-c2nc3cc(C(=O)c4ccc5nc(-c6ccccc6)c(-c6ccc(-n7c(=O)c8cc9c(=O)n(*)c(=O)c9cc8c7=O)cc6)nc5c4)ccc3nc2-c2ccccc2)cc1 (repeat unit)", 240.00],
  ["*c1cccc(-c2cc(C(=O)Nc3ccc(OC(=O)c4cc(OCCCCCCCCCCCC)c(OCCCCCCCCCCCC)c(OCCCCCCCCCCCC)c4)cc3)cc(-c3cccc(N4C(=O)c5ccc(S(=O)(=O)c6ccc7c(c6)C(=O)N(*)C7=O)cc5C4=O)c3)c2)c1 (repeat unit)", 268.00],
  ["*Oc1ccc(CC(NC(=O)CCc2ccc(OC(=O)CCCC(*)=O)cc2)C(=O)OCCCCCCCC)cc1 (repeat unit)", 32.50],
  ["*CCOC(=O)Nc1ccc(C)c(NC(=O)OCCOc2cc([N+](=O)[O-])ccc2/N=N/c2cn(*)c3ccccc23)c1 (repeat unit)", 150.00],
  ["*c1ccc(Oc2ccc(-c3ccc(Oc4ccc(-n5c(=O)c6cc7c(=O)n(*)c(=O)c7cc6c5=O)cc4)cc3)cc2)cc1 (repeat unit)", 300.00]
]}

Task: Which glass transition temperature value belongs to *c1ccc(Oc2ccc(N3C(=O)c4cccc(Oc5c(C)cc(-c6cc(C)c(Oc7cccc8c7C(=O)N(*)C8=O)c(C)c6)cc5C)c4C3=O)cc2)cc1 (repeat unit) ?
Result: 298.00

Task: Requested read-out: glass transition temperature. Entry: *CCOP(=O)(/N=N/c1ccc(COC(=O)c2cc(C(=O)OCc3ccc(/N=N/P(=O)(O*)OC)cc3)cc(C(C)(C)C)c2)cc1)OC (repeat unit)
Result: 105.00
